# assaySystem: Dimer of Gag-Pol polyprotein [489-587] (Human immunodeficiency virus 1)
# Construct: 489-587
# assayNotes: Protease Inhibition Assay
# conditionInfo: pH 6; 37 °C
attributeMeasured: IC50

q: // returns reported IC50 for input CCC(C)C(CO)NC(=O)[C@@H]1N[C@@H]([C@H](NC(=O)Cc2ccccc2)C(=O)NCc2ccccc2)SC1(C)C (some centres undefined)
a: > 0.54 µM

q: // returns reported IC50 for input CC1(C)S[C@H]([C@H](NC(=O)Cc2ccccc2)C(=O)NCc2ccccc2)N[C@H]1C(N)=O
a: > 230 µM

q: // returns reported IC50 for input C[C@H](Cc1ccccc1)NC(=O)[C@@H]1N[C@@H]([C@H](NC(=O)Cc2ccccc2)C(=O)NCc2ccccc2)SC1(C)C
a: > 180 µM

q: // returns reported IC50 for input C[C@H](CO)NC(=O)[C@@H]1N[C@@H]([C@H](NC(=O)Cc2ccccc2)C(=O)NCc2ccccc2)SC1(C)C
a: > 20 µM

q: // returns reported IC50 for input C[C@@H](Cc1ccccc1)NC(=O)[C@@H]1N[C@@H]([C@H](NC(=O)Cc2ccccc2)C(=O)NCc2ccccc2)SC1(C)C
a: > 180 µM

q: // returns reported IC50 for input CC1(C)S[C@H]([C@H](NC(=O)Cc2ccccc2)C(=O)NCc2ccccc2)N[C@H]1C(=O)NCCNC(=O)[C@@H]1N[C@@H]([C@H](NC(=O)Cc2ccccc2)C(=O)NCc2ccccc2)SC1(C)C
a: 0.0009 µM

q: // returns reported IC50 for input CC1(C)S[C@H]([C@H](NC(=O)Cc2ccccc2)C(=O)NCc2ccccc2)N[C@H]1C(=O)N[C@H](CO)Cc1ccccc1
a: > 170 µM

q: // returns reported IC50 for input CC(C)C[C@H](CO)NC(=O)[C@@H]1N[C@@H]([C@H](NC(=O)Cc2ccccc2)C(=O)NCc2ccccc2)SC1(C)C
a: > 4.6 µM

q: // returns reported IC50 for input CC(C)[C@H](CO)NC(=O)[C@@H]1N[C@@H]([C@H](NC(=O)Cc2ccccc2)C(=O)NCc2ccccc2)SC1(C)C
a: > 4.7 µM
